Ref: ChEMBL document CHEMBL1133244

- tested.system: 72 kDa type IV collagenase (Homo sapiens, UniProt P08253)
- Sequence (P08253 whole entry): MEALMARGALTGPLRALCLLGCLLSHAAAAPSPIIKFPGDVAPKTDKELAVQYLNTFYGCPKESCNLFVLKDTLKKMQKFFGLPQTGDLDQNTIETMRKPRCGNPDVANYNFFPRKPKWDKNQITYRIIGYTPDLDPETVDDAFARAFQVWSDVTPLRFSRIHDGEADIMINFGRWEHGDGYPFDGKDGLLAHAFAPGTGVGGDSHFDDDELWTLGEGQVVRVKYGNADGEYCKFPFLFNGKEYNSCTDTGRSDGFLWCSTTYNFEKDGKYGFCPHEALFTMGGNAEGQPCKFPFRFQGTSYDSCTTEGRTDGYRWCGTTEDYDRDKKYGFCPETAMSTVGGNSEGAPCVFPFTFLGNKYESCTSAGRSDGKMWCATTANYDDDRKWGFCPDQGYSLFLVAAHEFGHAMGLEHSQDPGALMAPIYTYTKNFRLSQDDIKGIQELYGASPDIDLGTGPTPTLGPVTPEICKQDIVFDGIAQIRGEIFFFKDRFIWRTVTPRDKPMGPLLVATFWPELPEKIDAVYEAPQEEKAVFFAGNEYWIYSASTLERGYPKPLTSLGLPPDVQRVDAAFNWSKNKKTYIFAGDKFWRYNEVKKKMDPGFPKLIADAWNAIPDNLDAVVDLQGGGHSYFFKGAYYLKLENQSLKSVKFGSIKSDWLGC
quantity.name: Ki (nM)

(I) COc1ccc(S(=O)(=O)C(CC(=O)NO)C(C)c2ccccc2)cc1 (configuration not stated)
(II) COc1ccc(S(=O)(=O)C(COCc2ccccc2)CC(=O)NO)cc1 (configuration not stated)
(III) CCCCC(CC)C(CC(=O)NO)S(=O)(=O)c1ccc(OC)cc1 (configuration not stated)
## Input Order the items by recorded Ki; the first position goes to the largest value. Hello, could you send the labels back in the order asked? Thank you.
## Output II, I, III
(II: 38 nM, I: 8 nM, III: 4 nM)

(P) CCCCC(CC(=O)NO)S(=O)(=O)c1ccc(OC)cc1 (configuration not stated)
(Q) COc1ccc(S(=O)(=O)C(CCCc2ccccc2)CC(=O)NO)cc1 (configuration not stated)
## Input Exercise: compare P and Q ; which one has the greater Ki? Refer to your chosen entry by its label in the reply.
## Output Q

###

- tested.system: Stromelysin-1 (Homo sapiens, UniProt P08254)
- Sequence (P08254 whole entry): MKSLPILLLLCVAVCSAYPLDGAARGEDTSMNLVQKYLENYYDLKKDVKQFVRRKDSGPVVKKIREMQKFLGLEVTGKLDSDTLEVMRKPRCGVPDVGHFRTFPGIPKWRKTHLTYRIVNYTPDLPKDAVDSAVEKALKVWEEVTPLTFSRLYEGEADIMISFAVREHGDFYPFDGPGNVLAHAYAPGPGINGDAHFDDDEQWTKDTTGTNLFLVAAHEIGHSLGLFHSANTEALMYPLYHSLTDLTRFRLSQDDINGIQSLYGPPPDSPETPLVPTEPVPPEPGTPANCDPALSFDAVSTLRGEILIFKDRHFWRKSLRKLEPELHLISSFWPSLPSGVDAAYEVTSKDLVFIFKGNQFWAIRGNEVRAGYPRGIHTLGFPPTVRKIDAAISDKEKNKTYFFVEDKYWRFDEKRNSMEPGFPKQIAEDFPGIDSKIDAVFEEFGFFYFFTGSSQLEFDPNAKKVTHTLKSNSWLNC
- measurement.protocol: Inhibitory activity against recombinant matrix metalloprotease-3
pIC50: −log10 of the molar value.
quantity.name: pIC50

// worked examples, pIC50 included
compound	pIC50
CCCC(CC(=O)NO)S(=O)(=O)c1ccc(OC)c(OC)c1 (centres undefined)	< 5.00
COc1ccc(S(=O)(=O)C(CCC(=O)N(C)c2ccccc2)CC(=O)NO)cc1OC1CCCC1 (centres undefined)	< 5.00
COc1ccc(Oc2cccc(C(CC(=O)NO)S(=O)(=O)c3ccc(OC)c(OC4CCCC4)c3)c2)cc1 (centres undefined)	< 5.00
COc1ccc(S(=O)(=O)C(CCCCc2ccc3c(c2)OCO3)CC(=O)NO)cc1OC (centres undefined)	< 5.00
COc1ccc(S(=O)(=O)C(CCc2ccc(OCc3ccccc3)cc2)CC(=O)NO)cc1OC (centres undefined)	< 5.00
COc1ccc(S(=O)(=O)C(CCc2ccccc2)CC(=O)NO)cc1OC1CCCC1 (centres undefined)	< 5.00
COc1ccc(S(=O)(=O)C(CC(=O)NO)c2ccccc2OCc2ccccc2)cc1OC1CCCC1 (centres undefined)	< 5.00
COc1ccc(S(=O)(=O)C(CCc2ccc(OCc3ccccc3)cc2)CC(=O)NO)cc1OC1CCCC1 (centres undefined)	< 5.00

Okay, next one:
## Input pIC50 for CCCCCCC(CC(=O)NO)S(=O)(=O)c1ccc(OC)c(OC2CCCC2)c1 (centres undefined) ?
## Output < 5.00

###

- tested.system: Phosphodiesterase 4 (Cavia porcellus)
- measurement.protocol: Phosphodiesterase 4 inhibitory activity measured against guinea pig macrophage homogenate
quantity.name: IC50 (nM)

compound	tested.system	IC50 / nM
COc1ccc(S(=O)(=O)C(CCCC(=O)N2CCCc3ccccc32)CC(=O)NO)cc1OC1CCCC1 (centres undefined)	Phosphodiesterase 4 (Cavia porcellus)	36
COc1ccc(S(=O)(=O)C(CC(=O)NO)c2ccc(Oc3ccccc3)cc2)cc1 (centres undefined)	Phosphodiesterase 4 (Cavia porcellus)	280
COc1ccc(S(=O)(=O)C(CCN(C)C(=O)OCc2ccccc2)CC(=O)NO)cc1OC1CCCC1 (centres undefined)	Phosphodiesterase 4 (Cavia porcellus)	460

(A) COc1ccc(S(=O)(=O)C(CC(=O)NO)c2ccc(OCc3ccccc3)cc2)cc1OC1CCCC1 (centres undefined)
(B) COc1ccc(S(=O)(=O)C(CCCCc2ccc3c(c2)OCO3)CC(=O)NO)cc1OC (centres undefined)
(C) COc1ccc(S(=O)(=O)C(CCOC(=O)N(C)c2ccccc2)CC(=O)NO)cc1OC1CCCC1 (centres undefined)
(D) COc1ccc(S(=O)(=O)C(CCc2ccccc2)CC(=O)NO)cc1OC1CCCC1 (centres undefined)
(E) CCCC(CC(=O)NO)S(=O)(=O)c1ccc(OC)c(OC)c1 (centres undefined)
## Input Ordering: ascending IC50. Hello, could you send the labels back in the order asked? Thank you.
## Output B, A, D, C, E
